System: 653999-131-R-J2-PDC complex spheroid viability;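 further: spheroids exposed to agents for seven days before readout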
Assay summary: Anticancer human tumor 653999-131-R-J2-PDC patient-derived lung adenocarcinoma cell line growth inhibition
Conditions used: second compound 1 µM; first compound 0.3 µM; stronger effect = lower value
// reported viability, T/C for each item listed

Compound: CCN(c1cc(-c2ccc(CN3CCOCC3)cc2)cc(C(=O)NCc2c(C)cc(C)[nH]c2=O)c1C)C1CCOCC1 + NC1CCC(NC2CC2c2ccccc2)CC1
viability, T/C, %: 76.3
--
Compound: CCN(c1cc(-c2ccc(CN3CCOCC3)cc2)cc(C(=O)NCc2c(C)cc(C)[nH]c2=O)c1C)C1CCOCC1 + NC1CC1c1ccc(-c2cccc(O)c2)cc1
viability, T/C, %: 95.4
--
Compound: O=C(C=Cc1cccc(S(=O)(=O)Nc2ccccc2)c1)NO + NC1CCC(NC2CC2c2ccccc2)CC1
viability, T/C, %: 71.6
--
Compound: Nc1ncn(C2CC(O)C(CO)S2)c(=O)n1 (centres undefined) + NC1CCC(NC2CC2c2ccccc2)CC1
viability, T/C, %: 55.5
